Values compiled from ChEMBL document CHEMBL3425438.

Exercise: state measured IC50 for each of the molecules provided.
- SUBJECT_OF_TEST: Estrogen receptor (Homo sapiens, UniProt P03372)
- Sequence (P03372 whole entry): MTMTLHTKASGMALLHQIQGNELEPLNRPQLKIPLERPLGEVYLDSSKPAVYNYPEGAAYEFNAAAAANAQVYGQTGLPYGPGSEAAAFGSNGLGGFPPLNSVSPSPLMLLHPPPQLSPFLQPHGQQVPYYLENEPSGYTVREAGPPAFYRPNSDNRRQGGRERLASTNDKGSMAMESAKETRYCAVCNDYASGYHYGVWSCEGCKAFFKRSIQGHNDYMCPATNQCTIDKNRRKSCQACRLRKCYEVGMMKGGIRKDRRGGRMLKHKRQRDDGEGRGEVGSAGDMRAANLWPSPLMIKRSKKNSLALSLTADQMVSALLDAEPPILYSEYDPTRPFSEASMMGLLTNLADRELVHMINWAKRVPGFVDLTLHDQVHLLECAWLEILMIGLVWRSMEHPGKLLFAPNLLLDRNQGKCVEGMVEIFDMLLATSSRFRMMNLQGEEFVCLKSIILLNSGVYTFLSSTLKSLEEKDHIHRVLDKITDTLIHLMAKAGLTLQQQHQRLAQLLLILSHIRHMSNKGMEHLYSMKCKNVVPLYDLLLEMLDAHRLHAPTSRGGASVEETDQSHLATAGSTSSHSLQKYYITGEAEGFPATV
- EXPERIMENTAL_DETAILS: Binding affinity to ER alpha (unknown origin) by LanthaScreen TR-FRET competitive binding assay
One number for each entry, in nM.

Some molecules with known IC50 results, for comparison:
| SMILES_INPUT | RECORDED_VALUE |
| --- | --- |
| O=C(O)/C=C/c1ccc(Cc2c(-c3ccc(OC(F)(F)F)cc3)c(=O)oc3cc(O)ccc23)cc1 | 1.6 |
| Cc1c(O)ccc2c(Cc3ccc(/C=C/C(=O)O)cc3)c(-c3ccc(OC(F)(F)F)cc3)c(=O)oc12 | 280 |

Could I get IC50 for every one of these entries?
1. COc1cccc(-c2c(Cc3ccc(/C=C/C(=O)O)cc3)c3ccc(O)cc3oc2=O)c1
2. O=C(O)/C=C/c1ccc(Cc2c(-c3ccc(OC(F)(F)F)cc3)c(=O)oc3cc(F)ccc23)cc1
3. Cc1cc(F)ccc1-c1c(Cc2ccc(/C=C/C(=O)O)cc2)c2ccc(C(F)F)cc2oc1=O
4. O=C(O)/C=C/c1ccc(Cc2c(-c3ccc(OC(F)(F)F)cc3)c(=O)oc3ccccc23)cc1
5. Cc1cc(F)ccc1-c1c(Oc2ccc(/C=C/C(=O)O)cc2)c2cc(F)c(O)cc2oc1=O

Result:
1. 41
2. 5800
3. 390
4. 360
5. 7.4

Could I get IC50 for every one of these entries?
1. Cc1cc(F)ccc1-c1c(Oc2ccc(/C=C/C(=O)O)cc2)c2ccc(O)c(F)c2oc1=O
2. Cc1cc(F)ccc1-c1c(Oc2ccc(/C=C/C(=O)O)cc2)c2ccc(O)cc2oc1=O
3. O=C(O)/C=C/c1ccc(Cc2c(-c3ccc(F)cc3F)c(=O)oc3cc(O)ccc23)cc1

Result:
[3.2, 0.4, 3]

Could I get IC50 for every one of these entries?
1. Cc1cc(F)ccc1-c1c(Nc2ccc(/C=C/C(=O)O)cc2)c2ccc(O)cc2oc1=O
2. Cc1cccc(-c2c(Cc3ccc(/C=C/C(=O)O)cc3)c3ccc(O)cc3oc2=O)c1
3. Cc1cc2c(Cc3ccc(/C=C/C(=O)O)cc3)c(-c3ccc(OC(F)(F)F)cc3)c(=O)oc2cc1O
4. Cc1cc(F)ccc1-c1c(Cc2ccc(/C=C/C(=O)O)cc2)c2ccc(O)cc2oc1=O
5. CCOc1ccc2c(Oc3ccc(/C=C/C(=O)O)cc3)c(-c3ccc(OC(F)(F)F)cc3C)c(=O)oc2c1
6. Cc1cc(F)ccc1-c1c(N(C)c2ccc(/C=C/C(=O)O)cc2)c2ccc(O)cc2oc1=O

Result:
25
17
10
3.9
50
9.9

Could I get IC50 for every one of these entries?
1. O=C(O)/C=C/c1ccc(Cc2c(-c3ccccc3)c(=O)oc3cc(O)ccc23)cc1
2. Cc1cc(OC(F)(F)F)ccc1-c1c(Oc2ccc(/C=C/C(=O)O)cc2)c2ccccc2oc1=O
3. O=C(O)/C=C/c1ccc(Cc2c(-c3ccc(C(F)(F)F)cc3)c(=O)oc3cc(O)ccc23)cc1

Result:
1. 8.1
2. 15
3. 4.6

Could I get IC50 for every one of these entries?
1. Cc1cc(OC(F)(F)F)ccc1-c1c(Oc2ccc(/C=C/C(=O)O)cc2)c2ccc(C(F)F)cc2oc1=O
2. Cc1cc(F)ccc1-c1c(Cc2ccc(/C=C/C(=O)O)cc2)c2c(F)cc(O)cc2oc1=O
3. Cc1cc(OC(F)(F)F)ccc1-c1c(Cc2ccc(/C=C/C(=O)O)cc2)c2ccc(O)cc2oc1=O
4. COc1ccc(-c2c(Cc3ccc(/C=C/C(=O)O)cc3)c3ccc(O)cc3oc2=O)cc1
5. Cc1cc(Cl)ccc1-c1c(Cc2ccc(/C=C/C(=O)O)cc2)c2ccc(O)cc2oc1=O
6. COc1ccc2c(Cc3ccc(/C=C/C(=O)O)cc3)c(-c3ccc(OC(F)(F)F)cc3)c(=O)oc2c1
7. Cc1cc(OC(F)(F)F)ccc1-c1c(Oc2ccc(/C=C/C(=O)O)cc2)c2ccc(O)cc2oc1=O
8. Cc1cc(F)ccc1-c1c(Oc2ccc(/C=C/C(=O)O)cc2)c2ccccc2oc1=O

Result:
50
1.3
1
3.8
1.5
1100
0.5
72

Could I get IC50 for every one of these entries?
1. Cc1cc(F)ccc1-c1c(Cc2ccc(/C=C/C(=O)O)cc2)c2ccc(CO)cc2oc1=O
2. O=C(O)/C=C/c1ccc(Cc2c(-c3ccc(F)cc3Cl)c(=O)oc3cc(O)ccc23)cc1

Result:
[100, 2.2]
